experimentDescription: in vitro
cond: human, % of cell viability compared to control, 1. measurement, HepG2, 0.1 µM
Catalogue of viability at 0.1 µM values
metricName: viability at 0.1 µM (%)

# compound, reportedMeasurement
measured = [
    ("COc1ccc2cc3[n+](cc2c1OCc1ccccc1Br)CCc1cc2c(cc1-3)OCO2 [16e, 9-O-(2-brombenzyl)berberine chloride]", 102),
    ("COc1ccc2cc3[n+](cc2c1OCc1ccc(Cl)cc1)CCc1cc2c(cc1-3)OCO2 [16i, 9-O-(4-chlorbenzyl)berberine chloride]", 96.1),
]

----------
Catalogue of SI (selectivity index) values
Test system: HepG2 cells

# molecule, SI (selectivity index)
rows = [
    ("COc1ccc2cc3[n+](cc2c1OCc1ccc(Cl)cc1)CCc1cc2c(cc1-3)OCO2 [16i, 9-O-(4-chlorbenzyl)berberine chloride]", 2.73),
    ("COc1ccc2cc3[n+](cc2c1OCc1ccc(Br)cc1)CCc1cc2c(cc1-3)OCO2 [16g, 9-O-(4-brombenzyl)berberine chloride]", 2.89),
    ("COc1ccc2cc3[n+](cc2c1OCc1ccccc1)CCc1cc2c(cc1-3)OCO2 [16a, 9-O-benzylberberine chloride]", 1.76),
    ("COc1ccc2cc3[n+](cc2c1OCc1ccc(C)cc1)CCc1cc2c(cc1-3)OCO2 [16d, 9-O-(4-methylbenzyl)berberine chloride]", 2.54),
    ("COc1ccc2cc3[n+](cc2c1OCc1ccc(Cl)c(Cl)c1)CCc1cc2c(cc1-3)OCO2 [16k]", 4.55),
    ("COc1ccc2cc3[n+](cc2c1OCc1cccc(Cl)c1)CCc1cc2c(cc1-3)OCO2 [16h, 9-O-(3-chlorbenzyl)berberine chloride]", 1.59),
]
